Target: recombinant soluble homotrimeric HA of A/Anhui/1/05 (H5N1) (Influenza A virus A/Anhui/1/2005(H5N1))
Experiment: trimeric HA microarray, transfection supernatant set 5
Settings: remark: other sources report otherwise
Reported Property: Trimeric HA Binding: RLU (RLU)

[
  {
    "Binder": "TCN-543 (5081_G23) (antibody, V domains shown) VH: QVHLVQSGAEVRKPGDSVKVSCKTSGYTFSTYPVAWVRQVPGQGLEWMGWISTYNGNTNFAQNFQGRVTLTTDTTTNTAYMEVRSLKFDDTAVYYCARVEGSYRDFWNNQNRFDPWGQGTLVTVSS VL: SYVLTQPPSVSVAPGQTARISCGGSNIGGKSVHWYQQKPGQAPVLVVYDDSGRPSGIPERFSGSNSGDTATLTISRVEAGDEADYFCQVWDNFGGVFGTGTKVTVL",
    "Unit String": "RLU",
    "Recorded Number": 2630
  }
]
